# system name: CD117 (c-KIT) (UniProt P10721 P10721:26-524)
# Sequence (P10721 26-524, one chain of several): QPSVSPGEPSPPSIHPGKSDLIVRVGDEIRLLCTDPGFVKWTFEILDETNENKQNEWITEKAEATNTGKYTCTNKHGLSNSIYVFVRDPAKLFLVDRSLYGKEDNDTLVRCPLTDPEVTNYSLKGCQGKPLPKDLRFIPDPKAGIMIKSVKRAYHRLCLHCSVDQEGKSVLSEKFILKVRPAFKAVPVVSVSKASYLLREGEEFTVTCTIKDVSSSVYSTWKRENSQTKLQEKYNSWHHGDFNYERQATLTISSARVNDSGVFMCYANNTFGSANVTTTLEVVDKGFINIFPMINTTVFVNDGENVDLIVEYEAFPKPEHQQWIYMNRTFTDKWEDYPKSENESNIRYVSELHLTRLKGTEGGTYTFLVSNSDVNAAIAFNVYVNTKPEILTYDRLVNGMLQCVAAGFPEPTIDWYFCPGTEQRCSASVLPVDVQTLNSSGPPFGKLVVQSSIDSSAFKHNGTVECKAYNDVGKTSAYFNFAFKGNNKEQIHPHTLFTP
# procedure text: SPR; aptamer alone, CD117 immobilized on CM5 chip
# experimental setup: tags: immobilized on Biacore CM5 chip; label: 5' FAM (flow cytometry)
# Description: Next, surface plasmon resonance (SPR) assays were performed to assess the ability of networks of polynucleotides to improve the binding affinity of an aptamer. Aptamer ABWT050902 (a CD 117 binder) was folded as previously described. Aptamers alone, and aptamers on a TRD1 (as illustrated in FIG. 2) were prepared at varying concentrations and flowed over a CM5 sensor chip on a Biacore SPR immobilized with CD117. […]
endpoint: Kd (nM)

binder: ABWT050902 (ssDNA) DNA: ATCCAGAGTGACGCAGCACCGCCCATGTCGAATAGGTGCCACGTAGGGACTTGGACACGGTGGCTTAGT
endpoint: Kd
assay value: 1220

Cited source for all entries: patent US20250388907A1
